biological target: Estrogen receptor beta (Homo sapiens); assay: OT_ER_ERbERb_1440: Odyssey Thera (OT) 24-hour HEK293T Protein-Complementation Assay for Estrogen Receptor-beta/-beta Homodimer (AID 2283380);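 also: fluorescence gain from ER beta LBD homodimer complementation read by laser scanning cytometry; scored as signal increase over DMSO baseline for both agonists and antagonists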
Active and inactive are the calls of the source. The calls were made as follows: active = hit-call score of the fitted dose curve at least 0.9, where 1 is the maximum; inconclusive = response in the unintended direction; inactive = score below 0.9.
Property: outcome

{"columns": ["Line notation", "System tested", "Result"],
 "data": [
  ["CC(C)(C)[C@@H](O)[C@@H](Cc1ccc(Cl)cc1)n1cncn1", "Estrogen receptor beta (Homo sapiens)", "inactive"],
  ["CCCCOCCOCCOCc1cc2c(cc1CCC)OCO2", "Estrogen receptor beta (Homo sapiens)", "inactive"],
  ["c1ccc2[nH]c(-c3cscn3)nc2c1", "Estrogen receptor beta (Homo sapiens)", "inactive"]
]}

* * *

experiment: APR_HepG2_MitoMembPot_1hr: Apredica 1-hour HepG2 Assay for Mitochondrial Membrane Potential (AID 2282675); details: imaging, actives raise or lower the signal
Activity calls are given as the source filed them. The calls were made as follows: active = hit-call score of the fitted dose curve at least 0.9, where 1 is the maximum; inactive = score below 0.9.
Please state which outcome applies, choosing from class 1 (active), class 0 (inactive)

input: What is the recorded call for this molecule in the test? COc1c(Cl)ccc(Cl)c1C(=O)O
output: class 0

input: What did this assay record as the result for CC1(C)C(C=C(Cl)Cl)C1C(=O)OCc1cccc(Oc2ccccc2)c1 (configuration not stated) ?
output: class 0

input: Recorded test outcome, item Cc1nn(C)c(Oc2ccccc2)c1C=NOCc1ccc(C(=O)OC(C)(C)C)cc1
output: class 0

input: Which outcome did this test record for the molecule COC(=O)c1ccc(I)cc1S(=O)(=O)NC(=O)Nc1nc(C)nc(OC)n1 ?
output: class 0

input: Write down the call the test reported for this molecule. Item: Oc1ccc(C(c2ccc(O)cc2)C(Cl)(Cl)Cl)cc1
output: class 1

input: Please let me know the test result on file for COC(=O)c1ccccc1C(=O)O .
output: class 0

input: For this molecule, state the assay outcome: CC(C)(c1ccc(O)cc1)c1ccc(O)cc1
output: class 0

input: Just curious, what result did CCCCCOC(=O)COc1cc(N2C(=O)C3=C(CCCC3)C2=O)c(F)cc1Cl get here?
output: class 0

input: Assay result, entry CCCCCCC(C)OC(=O)COc1nc(F)c(Cl)c(N)c1Cl (configuration not stated) — outcome?
output: class 0

input: Per the assay record, what outcome was assigned to O=C(Nc1ccc([N+](=O)[O-])cc1Cl)c1cc(Cl)ccc1O ?
output: class 1

input: What is the recorded call for this molecule in the test? CCOC(=O)COc1cc(-n2ncc(C(F)(F)F)c(C)c2=O)c(F)cc1Cl
output: class 0

input: Give the logged outcome of this assay for the following molecule: OB(O)O
output: class 0

input: Outcome logged for COC(=O)c1c(Cl)nn(C)c1S(=O)(=O)NC(=O)Nc1nc(OC)cc(OC)n1 in this assay:
output: class 0

input: Which outcome did this test record for the molecule CCCN(CCC)c1c([N+](=O)[O-])cc(C(F)(F)F)c(N)c1[N+](=O)[O-] ?
output: class 0

input: Hello, I am checking results. What call was entered for C=CCOC(Cn1ccnc1)c1ccc(Cl)cc1Cl (configuration not stated) ?
output: class 0

input: GET /call?item= CCN(Cc1c(F)cccc1Cl)c1c([N+](=O)[O-])cc(C(F)(F)F)cc1[N+](=O)[O-] returns the recorded outcome of this test.
output: class 0

input: Lab log entry: CN(C)C(=O)Nc1ccc(Cl)c(Cl)c1 — outcome as called in the assay?
output: class 0

input: Record request — test call for CC(C)(C)[C@@H](O)[C@@H](Cc1ccc(Cl)cc1)n1cncn1
output: class 0

input: Could you check what this test reported for CCSC(=O)N(CC(C)C)CC(C)C ?
output: class 0

input: Hi team, can someone confirm the assay call for CCCN(CCC)C(=O)SCC ?
output: class 0

input: For this molecule, state the assay outcome: N#CSCSc1nc2ccccc2s1
output: class 0

input: Given COc1nc(C)nc(NC(=O)NS(=O)(=O)c2ccccc2OCCCl)n1 , state the outcome it received in this test.
output: class 0

* * *

Read-out: ABC Transporter (ABCB1), ABCB1 (gene 5243)
Assay: CLD_ABCB1_48hr: CellzDirect (CLD) Gene Expression Assay for ABC Transporter (ABCB1) at 48 hours (AID 2283695)
Description: CLD_48hr is a cell-based, multiplexed-readout assay that uses hepatocyte, a human liver primary cell, with measurements taken at 48 hours after chemical dosing in a 96-well plate.CLD_ABCB1_48hr is one of 16 assay component(s) measured or calculated from the CLD_48hr assay. […] Furthermore, this assay endpoint can be referred to as a primary readout. […]
Inconclusive results are not listed. Active and inactive are the calls of the source. Rule for the calls: active = hit-call score of the fitted dose curve at least 0.9, where 1 is the maximum; inconclusive = response in the unintended direction; inactive = score below 0.9.
API: response.call in active, inactive

input: What outcome does the record of this test show for OB(O)O ?
output: inactive

input: Field: outcome | Entry: CC1(C)C(C=C(Cl)Cl)C1C(=O)OCc1cccc(Oc2ccccc2)c1 (stereo unspecified)
output: inactive

input: Answer briefly: the call reported for S=C(S)NCCNC(=S)S.[Mn+2].[S-]C([S-])=NCCN=C([S-])[S-].[Zn+2] in this assay.
output: active

input: Could you please tell me the result logged for CCN(CC)C(=O)c1cccc(C)c1 in this assay?
output: inactive

input: Could you kindly confirm the outcome this assay logged for CCCCC(CC)CN1C(=O)C2C3C=CC(C3)C2C1=O (stereo unspecified) ?
output: inactive

input: Given O=C(O)C1(C(=O)Nc2ccc(Cl)cc2Cl)CC1 , state the outcome it received in this test.
output: inactive

* * *

read-out: NAD(P)H dehydrogenase [quinone] 1 (NQO1), NQO1 (gene 1728); experiment: LTEA_HepaRG_NQO1: Life Technologies and Expression Analysis (LTEA) Assay for NAD(P)H dehydrogenase [quinone] 1 (NQO1) using HepaRG (AID 2283526); conditions: mRNA level, 48 h; actives raise or lower the signal
Activity calls are given as the source filed them. Rule for the calls: active = hit-call score of the fitted dose curve at least 0.9, where 1 is the maximum; inactive = score below 0.9.
Give your call using only these classes: active, inactive

input: State the result this test recorded for COC(=O)c1ccccc1C(=O)O .
output: inactive

input: Record request — test call for CC(C)(C)[C@@H](O)[C@@H](Cc1ccc(Cl)cc1)n1cncn1
output: inactive

input: Outcome logged for CCCN(CCC)C(=O)SCC in this assay:
output: inactive

input: What did the test return for O=C(Nc1ccc([N+](=O)[O-])cc1Cl)c1cc(Cl)ccc1O ?
output: active

input: I would be grateful if you could indicate the recorded call for C#C[C@]1(O)CC[C@H]2[C@@H]3CCC4=CC(=O)CC[C@@H]4[C@H]3CC[C@@]21CC .
output: inactive

input: Returns: the outcome recorded for CCOC(=O)COc1cc(-n2ncc(C(F)(F)F)c(C)c2=O)c(F)cc1Cl in this assay.
output: inactive

input: Test call, this compound: N#CSCSc1nc2ccccc2s1
output: inactive

* * *

read-out: xenobiotic metabolism (CYP1A2), CYP1A2 (gene 1544); assay: CLD_CYP1A2_48hr: CellzDirect (CLD) Gene Expression Assay for xenobiotic metabolism (CYP1A2) at 48 hours (AID 2283703)
Results filed as inconclusive are left out. The source made the active and inactive calls. How the source made its calls: active means hit-call score of the fitted dose curve at least 0.9, where 1 is the maximum; inconclusive means response in the unintended direction; inactive means score below 0.9.
Output constraint: value belongs to t for active, f for inactive

input: Kindly provide the recorded test outcome for the following compound: CCCCC(CC)COC(=O)c1ccccc1C(=O)O (configuration not stated)
output: f

input: Recorded test outcome, item c1ccc2[nH]c(-c3cscn3)nc2c1
output: t

input: Recorded test call requested for COC(=O)c1c(Cl)nn(C)c1S(=O)(=O)NC(=O)Nc1nc(OC)cc(OC)n1
output: t

input: Please let me know the test result on file for CCCCCCC(C)OC(=O)COc1nc(F)c(Cl)c(N)c1Cl (configuration not stated) .
output: f

input: Entry COC(=O)CSc1cc(N=c2sc(=O)n3n2CCCC3)c(F)cc1Cl : call = ?
output: f

input: Tell me the recorded outcome of this test for COC(=O)c1ccc(CNS(C)(=O)=O)cc1S(=O)(=O)NC(=O)Nc1nc(OC)cc(OC)n1 .
output: f

input: Returns: the outcome recorded for COCCO in this assay.
output: f

input: Lab log entry: CC1(C)C(C=C(Cl)Cl)C1C(=O)OCc1cccc(Oc2ccccc2)c1 (configuration not stated) — outcome as called in the assay?
output: t

input: In this assay, the call recorded for CC(C)(C)[C@@H](O)[C@@H](Cc1ccc(Cl)cc1)n1cncn1 was what?
output: t

input: I would be grateful if you could indicate the recorded call for CCC(O)=C1C(=O)CC(C(=O)O)CC1=O (configuration not stated) .
output: f

input: How did this test come out for C#CCOC(=O)[C@@H](C)Oc1ccc(Oc2ncc(Cl)cc2F)cc1 ?
output: f

input: Can you look up the reported call for c1ccc(Nc2ccccc2)cc1 for me?
output: t

input: // param item: COC(=O)c1cccc(C)c1S(=O)(=O)NC(=O)Nc1nc(OCC(F)(F)F)nc(N(C)C)n1 ; yields the recorded call
output: t

input: Any idea what this test logged for O=C(Nc1ccc([N+](=O)[O-])cc1Cl)c1cc(Cl)ccc1O ?
output: t

input: Write down the call the test reported for this compound. Item: CCOC(=O)COc1cc(-n2ncc(C(F)(F)F)c(C)c2=O)c(F)cc1Cl
output: f

input: Recorded test call requested for CCOC(=O)NCCOc1ccc(Oc2ccccc2)cc1
output: f

input: Lab log entry: COc1c(Cl)ccc(Cl)c1C(=O)O — outcome as called in the assay?
output: f

input: Could you kindly confirm the outcome this assay logged for CCOC(=O)C(C)Oc1ccc(Oc2nc3ccc(Cl)cc3o2)cc1 (configuration not stated) ?
output: f

input: Which result was noted for this compound in the test: CCCCCOC(=O)COc1cc(N2C(=O)C3=C(CCCC3)C2=O)c(F)cc1Cl
output: f

input: Please let me know the test result on file for CCCN(CCC)c1c([N+](=O)[O-])cc(C(F)(F)F)c(N)c1[N+](=O)[O-] .
output: t

input: State the result this test recorded for COC(=O)c1ccc(I)cc1S(=O)(=O)NC(=O)Nc1nc(C)nc(OC)n1 .
output: t

input: Recorded test call requested for O=C(O)C1(C(=O)Nc2ccc(Cl)cc2Cl)CC1
output: f
